Compiled record: IC50 values for Fibroblast growth factor receptor 1 (Homo sapiens) across several sources.

Recorded results for 5 compounds are shown here.
CC(=O)Nc1cc(-c2ccc(F)cc2F)cc(-c2cnn3cc(-c4cnn(C)c4)ccc23)c1; 2.37 nM
COCCNc1cc(NC(=O)N2CCCc3cc(CN(C)C(=O)COC)c(C=O)nc32)ncc1C#N; > 10000 nM
COc1cc(Nc2ncnc(-n3c(NCc4ccccc4C)nc4ccccc43)n2)cc(OC)c1OC; < 804 nM
COc1cc(OC)c(F)c(COc2cnc(NC(=O)N3CCCc4ccc(C=O)nc43)nc2)c1F; 5600 nM
COc1cc2nccc(Oc3ccc(NC(=S)NC4CC4)c(C(F)(F)F)c3)c2cc1C(N)=O; 200 to 1000 nM

Short answer on Fibroblast growth factor receptor 1 (Homo sapiens) for `COc1cc(Nc2ncnc(Nc3cc(Cl)c(O)c(Cl)c3)n2)cc(OC)c1OC` , IC50: > 10300 nM

Short answer on Fibroblast growth factor receptor 1 (Homo sapiens) for `CCOC(=O)c1c(C)[nH]c2c1CC/C2=C1/C(=O)Nc2ccc(S(=O)(=O)NC)cc21` , IC50: 600 nM

Short answer on Fibroblast growth factor receptor 1 (Homo sapiens) for `COc1cc2nccc(Oc3ccc(NC(=S)NCCN(C)C)c(Cl)c3)c2cc1C(N)=O` , IC50: 200 to 1000 nM

Short answer on Fibroblast growth factor receptor 1 (Homo sapiens) for `COc1cc(OC)c(F)c(-c2cc3[nH]nc(-c4ccc5c(c4)CN(CCN(C)C)C5=O)c3cn2)c1F` , IC50: < 100 nM

Short answer on Fibroblast growth factor receptor 1 (Homo sapiens) for `COc1cc(Nc2ncnc(-n3c(Nc4ccccc4C)nc4ccccc43)n2)cc(OC)c1OC` , IC50: 827 to 4960 nM

Short answer on Fibroblast growth factor receptor 1 (Homo sapiens) for `COc1cc(CCc2cc(NC(=O)c3ccc(N4CCN(C)[C@@H](C)C4)cc3)[nH]n2)cc(OC)c1` , IC50: 0.74 nM

Short answer on Fibroblast growth factor receptor 1 (Homo sapiens) for `COc1ccc(Nc2ncnc(Nc3cc(OC)c(OC)c(OC)c3)n2)cc1OC` , IC50: > 10900 nM

Short answer on Fibroblast growth factor receptor 1 (Homo sapiens) for `COCCOc1ccc(Nc2ncnc(Nc3cc(-c4ccco4)n[nH]3)n2)cc1OCCOC` , IC50: 856 to 5130 nM

Short answer on Fibroblast growth factor receptor 1 (Homo sapiens) for O=S(=O)(Nc1cc(-c2ccc(F)cc2F)cc(-n2cnc3cc(-c4cnn(C5CCNC5)c4)ccc32)n1)C1CC1 (stereo not drawn) , IC50: 1.6 nM
